assay: NOD1 signaling inhibitors, primary screen, cell-based, luminescence, uHTS (AID 1578); conditions: NOD1-driven NF-kB luciferase reporter cells, at 4 µM, hits give high values;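 note: HEK-293T reporter cells stimulated with the NOD1 agonist gamma-tri-DAP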
Among all 290,000 compounds or so, about 3,000 (1%) were called active. Only a selection was taken, and actives are over-represented in it overall.
Measure name: inhibition (%)

[
  {
    "Compound": "Cc1ccc(-c2nc3cnccn3c2Nc2c(C)cccc2C)o1",
    "Measure name": "inhibition",
    "Uom": "%",
    "Result value": 71
  },
  {
    "Compound": "Cc1ccc(-c2nc3cnccn3c2Nc2ccccc2)o1",
    "Measure name": "inhibition",
    "Uom": "%",
    "Result value": -18.2
  },
  {
    "Compound": "Cc1ccc(NC(=O)c2cc(-n3cnnc3)ccc2Cl)cc1",
    "Measure name": "inhibition",
    "Uom": "%",
    "Result value": -21.5
  },
  {
    "Compound": "COc1cc(OC)cc(OCC(O)Cn2cnc(-c3ccccc3)c2)c1 (centres undefined)",
    "Measure name": "inhibition",
    "Uom": "%",
    "Result value": -19.2
  },
  {
    "Compound": "COc1ccc(C(=O)NC(CC(=O)O)c2cc([N+](=O)[O-])ccc2Cl)c(SC)c1 (centres undefined)",
    "Measure name": "inhibition",
    "Uom": "%",
    "Result value": -14.4
  },
  {
    "Compound": "O=C(NCCNC(=O)c1ccccc1)c1ccccc1",
    "Measure name": "inhibition",
    "Uom": "%",
    "Result value": -9.5
  },
  {
    "Compound": "COc1ccccc1N1CCN(/N=C/c2cc(Br)ccc2F)CC1",
    "Measure name": "inhibition",
    "Uom": "%",
    "Result value": -42.6
  },
  {
    "Compound": "CCCCNCc1cc(Cl)c(OCCC)c(OCC)c1",
    "Measure name": "inhibition",
    "Uom": "%",
    "Result value": -20.5
  },
  {
    "Compound": "NNC(=O)c1csc(COc2cc(Cl)cc(Cl)c2)n1",
    "Measure name": "inhibition",
    "Uom": "%",
    "Result value": -9.6
  },
  {
    "Compound": "Cc1nn(C)cc1CNC(=O)c1ccc(Br)o1",
    "Measure name": "inhibition",
    "Uom": "%",
    "Result value": -3.1
  },
  {
    "Compound": "Cc1[nH]c2ccccc2c1C(=O)C(=O)N(C)C1CCCCC1",
    "Measure name": "inhibition",
    "Uom": "%",
    "Result value": -23.5
  },
  {
    "Compound": "Cc1ccc(C(=O)N/C(=C\\c2cccc([N+](=O)[O-])c2)C(=O)OCN2C(=O)c3ccccc3C2=O)cc1",
    "Measure name": "inhibition",
    "Uom": "%",
    "Result value": -36.4
  },
  {
    "Compound": "CN1CCN(NC(=O)C23CC4CC(CC(C4)C2)C3)CC1",
    "Measure name": "inhibition",
    "Uom": "%",
    "Result value": -2.4
  },
  {
    "Compound": "CCCC1S/C(=N/N=C/c2ccc(OC)cc2)N(Cc2ccc(OC)cc2)C1=O (centres undefined)",
    "Measure name": "inhibition",
    "Uom": "%",
    "Result value": 12.9
  },
  {
    "Compound": "Cc1cc(C)n(NC(=S)NC2CCCC2)c(=O)c1C#N",
    "Measure name": "inhibition",
    "Uom": "%",
    "Result value": -10.5
  },
  {
    "Compound": "CCCCC1S/C(=N/N=C/c2ccc(OC)cc2)N(Cc2ccc(OC)cc2)C1=O (centres undefined)",
    "Measure name": "inhibition",
    "Uom": "%",
    "Result value": 75.2
  },
  {
    "Compound": "O=C(CNS(=O)(=O)c1ccccc1)NCC(=O)OCc1ccc(Cl)cc1",
    "Measure name": "inhibition",
    "Uom": "%",
    "Result value": -12.2
  },
  {
    "Compound": "O=C(/C=C/c1ccc(OC(F)F)cc1)Nc1cccc(S(=O)(=O)NC2=NCCCCC2)c1",
    "Measure name": "inhibition",
    "Uom": "%",
    "Result value": -43.6
  },
  {
    "Compound": "CN(C(=O)CSc1ccccc1C(=O)O)C1CCCCC1",
    "Measure name": "inhibition",
    "Uom": "%",
    "Result value": -26.5
  },
  {
    "Compound": "Cc1ccnc(NC(=O)c2cc(-n3cnnc3)ccc2Cl)c1",
    "Measure name": "inhibition",
    "Uom": "%",
    "Result value": -27
  },
  {
    "Compound": "Cc1ccc(Cn2nnc3c(=O)n(Cc4cccc(C)c4)cnc32)cc1",
    "Measure name": "inhibition",
    "Uom": "%",
    "Result value": 3.6
  },
  {
    "Compound": "COc1ccc(OC(C)C(=O)N2CCCc3ccccc32)cc1 (centres undefined)",
    "Measure name": "inhibition",
    "Uom": "%",
    "Result value": -45.6
  },
  {
    "Compound": "O=C(NC1CCN(S(=O)(=O)c2cccc(F)c2)CC1)c1ccc(F)cc1",
    "Measure name": "inhibition",
    "Uom": "%",
    "Result value": -9.7
  },
  {
    "Compound": "CCCC1S/C(=N/N=C/c2ccc(C)cc2)N(Cc2ccc(OC)cc2)C1=O (centres undefined)",
    "Measure name": "inhibition",
    "Uom": "%",
    "Result value": 39.2
  }
]
